# TEST_DETAILS: Plasma concentration in Wistar rat plasma at 100 mg/kg, ip at 8 hrs
# Type: ADME, organism-based
# Design: dose 100 mg/kg, route intraperitoneal
QUANTITY_MEASURED: concentration at 8 h

In [3]: df
Out[3]:
                                smiles_text  result
0  C[C@H](NC(=O)Cc1ccc(-c2ccc3cccnc3n2)cc1)c1ccc(-c2ccc(F)c(C(F)(F)F)c2)cc1  280 nM

----------
Let's look at some molecules and their measured concentration at 8 h.
# TEST_DETAILS: Plasma concentration in Wistar rat plasma at 50 mg/kg, ip at 8 hrs
# Type: ADME, organism-based
# Design: dose 50 mg/kg, route intraperitoneal
QUANTITY_MEASURED: concentration at 8 h (µM)

In [3]: df
Out[3]:
                                smiles_text     quantity_measured  result_number
0  Cc1cccc(-c2ccc(CNC(=O)CCCc3ccc4cccnc4n3)cc2)c1  concentration at 8 h            1.1
1  O=C(CCCc1ccc2cccnc2n1)NCc1ccc(-c2cccc(Cl)c2)cc1  concentration at 8 h             15
2  O=C(CCCc1ccc2cccnc2n1)NCc1cc(-c2ccc(F)c(C(F)(F)F)c2)no1  concentration at 8 h             19
3  FC(F)(F)c1cc(-c2nnc(CCCCc3ccc4cccnc4n3)o2)ccc1Cl  concentration at 8 h             15

----------
# TEST_DETAILS: Oral bioavailability in Wistar rat plasma at 30 mg/kg
# Type: ADME, organism-based
Quick reference for bioavailability among some molecules
QUANTITY_MEASURED: bioavailability (%)

>>> df
                                smiles_text  result_number
0  FC(F)(F)Oc1ccc(-c2nnc(CCCCc3ccc4cccnc4n3)o2)cc1Cl             87
1  O=C(CCCc1ccc2cccnc2n1)NCc1cc(-c2ccc(F)c(C(F)(F)F)c2)no1             26

----------
# TEST_DETAILS: Volume of distribution at steady state in Wistar rat at 3 mg/kg, iv
# Type: ADME, organism-based
# Set-up: dose 3 mg/kg, route intravenous
# TEST_SETTINGS: in vivo, read-out: Vdss
QUANTITY_MEASURED: Vd

In [3]: df
Out[3]:
                                smiles_text  quantity_measured  result
0  C[C@H](NC(=O)Cc1ccc(-c2ccc3cccnc3n2)cc1)c1ccc(-c2ccc(F)c(C(F)(F)F)c2)cc1                 Vd  1 L/kg

----------
# TEST_DETAILS: Plasma protein binding in Wistar rat at 100 mg/kg, ip
# Format: ADME, organism-based
# Design: dose 100 mg/kg, route intraperitoneal
# TEST_SETTINGS: read-out: PPB
QUANTITY_MEASURED: fraction unbound

>>> print(df.to_string())
                                smiles_text  result_number
0  C[C@H](NC(=O)Cc1ccc(-c2ccc3cccnc3n2)cc1)c1ccc(-c2ccc(F)c(C(F)(F)F)c2)cc1           0.01

----------
# pIC50 annotations
# STUDY_SYSTEM: Succinate receptor 1 (Homo sapiens, UniProt Q9BXA5)
# Sequence (Q9BXA5 whole entry): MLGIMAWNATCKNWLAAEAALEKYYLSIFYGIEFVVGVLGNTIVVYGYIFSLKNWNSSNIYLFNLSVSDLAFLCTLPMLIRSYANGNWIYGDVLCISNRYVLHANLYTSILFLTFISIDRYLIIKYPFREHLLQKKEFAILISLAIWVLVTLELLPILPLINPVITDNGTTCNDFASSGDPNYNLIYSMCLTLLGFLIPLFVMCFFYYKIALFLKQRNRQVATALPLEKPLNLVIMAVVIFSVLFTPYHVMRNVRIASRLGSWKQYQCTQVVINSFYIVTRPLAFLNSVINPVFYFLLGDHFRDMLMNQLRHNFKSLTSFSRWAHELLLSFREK
# TEST_DETAILS: Antagonist activity at human GPR91 receptor expressed in CHO-K1 cells co-expressing Galpha and Gqi5 G-protein assessed as inhibition of succinate-induced increase in intracellular calcium level by FLIPR assay
# Type: functional, cell-based
pIC50: −log10 of the molar value.
QUANTITY_MEASURED: pIC50

>>> print(df.to_string())
                                    compound                              study_system  value_comparator  result_number
 0  CC(C)(C(=O)NCc1ccc(-c2ccc(F)c(C(F)(F)F)c2)cc1)c1ccc(-c2ccc3cccnc3n2)cc1  Succinate receptor 1 (Homo sapiens, UniProt Q9BXA5)                 =           7.77
 1  O=C(CCCc1ccc2cccnc2n1)NCc1cc(-c2ccc(F)c(C(F)(F)F)c2)no1  Succinate receptor 1 (Homo sapiens, UniProt Q9BXA5)                 =           7.46
 2  FC(F)(F)c1cccc(-c2ccc(-c3nnc(CCCc4ccc5cccnc5n4)o3)cc2)c1  Succinate receptor 1 (Homo sapiens, UniProt Q9BXA5)                 =           6.70
 3  CC(NC(=O)CCCc1ccc2cccnc2n1)c1ccc(-c2cccc(C(F)(F)F)c2)cc1 (stereo not drawn)  Succinate receptor 1 (Homo sapiens, UniProt Q9BXA5)                 =           7.80
 4  Fc1ccc(-c2nnc(CCCCc3ccc4cccnc4n3)o2)cc1C(F)(F)F  Succinate receptor 1 (Homo sapiens, UniProt Q9BXA5)                 =           5.70
 5  O=C(CCCc1ccc2cccnc2n1)NCc1nnc(-c2ccc(F)c(C(F)(F)F)c2)s1  Succinate receptor 1 (Homo sapiens, UniProt Q9BXA5)                 =           6.57
 6  O=C(CCCc1ccc2cccnc2n1)NCc1cc(-c2ccc(F)c(Cl)c2)no1  Succinate receptor 1 (Homo sapiens, UniProt Q9BXA5)                 =           7.05
 7  Clc1ccc(-c2nnc(CCCCc3ccc4cccnc4n3)o2)cc1  Succinate receptor 1 (Homo sapiens, UniProt Q9BXA5)                 <           5.52
 8  C[C@H](NC(=O)C(C)(C)c1ccc(-c2ccc3cccnc3n2)cc1)c1ccc(-c2ccc(F)c(C(F)(F)F)c2)cc1  Succinate receptor 1 (Homo sapiens, UniProt Q9BXA5)                 =           7.85
 9  C[C@H](NC(=O)C(O)c1ccc(-c2ccc3cccnc3n2)cc1)c1ccc(-c2ccc(F)c(C(F)(F)F)c2)cc1 (stereo partly drawn)  Succinate receptor 1 (Homo sapiens, UniProt Q9BXA5)                 =           7.74
10  Cc1cccc(-c2ccc(CNC(=O)CCCc3ccc4cccnc4n3)cc2)c1  Succinate receptor 1 (Homo sapiens, UniProt Q9BXA5)                 =           7.52
11  FC(F)(F)Oc1ccc(-c2nnc(CCCCc3ccc4cccnc4n3)o2)cc1  Succinate receptor 1 (Homo sapiens, UniProt Q9BXA5)                 =           5.52
12  COC(=O)c1c(F)cccc1-c1ccc(CNC(=O)CCCc2ccc3cccnc3n2)c(F)c1  Succinate receptor 1 (Homo sapiens, UniProt Q9BXA5)                 =           6.10
13  O=C(CCCc1ccc2cccnc2n1)NCc1ccc(-c2ccccc2)cc1  Succinate receptor 1 (Homo sapiens, UniProt Q9BXA5)                 =           6.00
14  C[C@H](NC(=O)C(O)(c1ccc(-c2ccc3cccnc3n2)cc1)C(F)(F)F)c1ccc(-c2ccc(F)c(C(F)(F)F)c2)cc1 (stereo partly drawn)  Succinate receptor 1 (Homo sapiens, UniProt Q9BXA5)                 =           7.80
15  O=C(NCc1ccc(-c2ccc(F)c(C(F)(F)F)c2)cc1)C(O)(c1ccc(-c2ccc3cccnc3n2)cc1)C(F)(F)F (stereo not drawn)  Succinate receptor 1 (Homo sapiens, UniProt Q9BXA5)                 =           7.47
16  O=C(Cc1ccc(-c2ccc3cccnc3n2)cc1)NCc1ccc(-c2ccc(F)c(C(F)(F)F)c2)cc1  Succinate receptor 1 (Homo sapiens, UniProt Q9BXA5)                 =           7.12
17  O=C(Cc1ccc(-c2ccc3cccnc3n2)cc1)NCc1ccc(-c2ccc(F)c(Cl)c2)cc1  Succinate receptor 1 (Homo sapiens, UniProt Q9BXA5)                 =           7.51
